testDetails: small-molecule microarray binders of probe aEGFR, primary screen, biochemical, biotinylated probe, 635/667 nm fluorescence (AID 1097);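 further: probe is a biotinylated anti-EGFR antibody binding compounds printed on slides; score combines fluorescence near 667 nm and signal to noise of each spot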
conditionDetails: higher = more signal
For each entry below, report its composite z-score value.
Enter the number alone.

## Task For the molecule CCOC(=O)[C@H](Cc1ccccc1)NC(=O)CCC1CC(OC(=O)NCCc2ccc(F)cc2)CC2(CCCC(COC(=O)NCc3ccccc3)O2)O1 (stereo not given in full) , give its reported composite z-score.
## Result -0.0146

## Task Hello, please tell me recorded composite z-score for this one: CC(C)CON=C1C[C@@H](O)[C@@H](O)[C@@H]2[C@@H]3C(=O)N(C(C)(C)C)C(=O)[C@@H]3CC[C@H]12
## Result -0.0966

## Task In one line, give reported composite z-score of the entry CCOC(=O)[C@H](CC(C)C)NC(=O)CCC1CC(OC(=O)NCc2cccc3ccccc23)CC2(CCCC(COC(=O)NCCc3ccc(Cl)cc3)O2)O1 (stereo not given in full) .
## Result -0.0334

## Task Tell me composite z-score reported for CCN1C(=O)[C@H]2[C@H]3[C@H](O)[C@H](O)CC(=O)[C@@H]3CC[C@H]2C1=O
## Result -0.0115

## Task Note down composite z-score recorded for CC(C)CCN1CCc2nc(COc3ccccc3)c3c(c2C1)CO[C@@H](C)C3
## Result -0.123

## Task Supply composite z-score value. Item: CCOC(=O)[C@H](Cc1ccccc1)NC(=O)CCC1CC(OC(=O)NCc2ccc3c(c2)OCO3)CC2(CCCC(COC(=O)NCCC(C)C)O2)O1 (stereo not given in full)
## Result -0.068

## Task Give a short answer stating reported composite z-score for C[C@H]1COC(=O)[C@@H]2CCCN2C(=O)[C@@H](C)COC(=O)[C@H](Cc2ccccc2)NC1=O .
## Result 0.081

## Task Tell me its composite z-score given O=C1CCCC=C1C(O)CCOC(c1ccccc1)(c1ccccc1)c1ccccc1 (stereo not given) as the entry.
## Result -0.198

## Task Assign composite z-score to the following record: CCCNC(=O)OC[C@H]1O[C@H](CCON=C(C)CCN2CCCc3nc(C)c(C)cc32)C=C[C@@H]1Oc1ccc(OC)cc1
## Result 0.101

## Task Return composite z-score (reported value) for this molecule: CC(C)=CCCC(C)=CCON=C1C[C@@H](O)[C@@H](O)[C@@H]2[C@@H]3C(=O)N(c4ccc(F)cc4F)C(=O)[C@@H]3CC[C@H]12
## Result -0.0372

## Task In one line, give reported composite z-score of the entry COc1cccc([C@H]2Oc3ccc(OC)cc3C(=NOC[C@@H](C)[C@H](OCc3ccccc3)C(C)C)[C@@H]2O)c1 .
## Result 0.0229

## Task For the molecule CCN1C(=O)[C@H]2[C@H]3[C@H](O)[C@H](O)CC(=NOCC(C)C)[C@@H]3CC[C@H]2C1=O , give its reported composite z-score.
## Result 0.051

## Task Tell me measured composite z-score for CC(CCN1CCCc2nc(C)c(C)cc21)=NOC(C)CN1CCCCc2nc(C)c(C)cc21 (stereo not given) please.
## Result 0.406

## Task For the molecule C=CC[C@@H]1C=C[C@H](ON=C[C@@H](C)[C@H](OCc2ccccc2)C(C)C)[C@@H](CO)O1 , give its reported composite z-score.
## Result -0.146

## Task Supply recorded composite z-score for CCN1C(=O)[C@H]2[C@H]3[C@H](O)[C@H](O)CC(=NOC[C@H]4O[C@H](c5ccccc5)C=C[C@@H]4Oc4ccc(OC)cc4)[C@@H]3CC[C@H]2C1=O here.
## Result -0.0085
